Values were extracted from patent US6972319B1.

# measured-target: T1, PACAP-R3 (human, UniProt P41587 24-438)
# T1 sequence (looked up): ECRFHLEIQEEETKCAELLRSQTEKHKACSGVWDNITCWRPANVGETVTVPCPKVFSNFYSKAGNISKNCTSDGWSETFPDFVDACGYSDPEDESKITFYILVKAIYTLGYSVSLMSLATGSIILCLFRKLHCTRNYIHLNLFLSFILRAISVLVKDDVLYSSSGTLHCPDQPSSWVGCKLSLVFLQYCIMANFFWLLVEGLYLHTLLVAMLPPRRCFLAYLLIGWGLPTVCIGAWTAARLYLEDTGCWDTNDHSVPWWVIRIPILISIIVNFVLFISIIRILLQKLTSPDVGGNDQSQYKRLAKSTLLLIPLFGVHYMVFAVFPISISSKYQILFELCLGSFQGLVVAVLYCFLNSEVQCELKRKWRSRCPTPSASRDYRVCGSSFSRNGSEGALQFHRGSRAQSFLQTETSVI
# experiment-notes: cell-based or functional assay
No end group written: not given here.
observed-property: R3 Selectivity (ratio)

See these solved cases before continuing.
# binder, R3 Selectivity, ratio
rows = [
    ("HSDAVFTDNYTRLRKQMAKKKYLNSIQNRI [rR3P186]", 44),
    ("HSDGIFTDSYSRYREQMAVKKYLAAVL-NH2 [PAC15]", 12),
    ("HSDGIFTDSYSRYRKQMAVKKKLAAVL-NH2 [PAC22]", 0.1),
    ("HSDGIFTDSYSRYRKQMAVKKYLAKVL-NH2 [PAC25]", 3),
    ("HSDGIFTDKYSRYRKQMAVKKYLAAVL-NH2 [PAC9]", 1),
]

1 = HSDGIFTDSYSRYRKQMAVKKYLAAKL-NH2 [PAC26]
2 = HSDAVFTDNYTRLRKQMAAKKYLNSIPNRI [rR3P179]
Which of the two items, 1 and 2 , has the greater recorded R3 Selectivity? API: response body contains the label of the selected item.
2
